Method Description: Toxicity in human MX1 cells xenografted crl:Nu/Nu-nuBR mouse
Type: organism-based
Protocol Conditions: in vivo
Property Label: MTD (mg/kg)
Kindly provide the numeric value in mg/kg only, without the unit symbol.

INPUT: Let me know recorded MTD for COc1ccc(N(C)c2nc(Cl)nc3ccccc23)cc1 , thanks.
OUTPUT: 25
